experiment: AP1 Signaling Pathway (AID 357); conditions: ME-180 (cervical carcinoma) AP-1-bla reporter, EGF-induced, beta-lactamase ratio, 5 h; at 17.2 µM (top of the series) unless noted;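 note: ME-180 reporter cells stimulated with EGF at its EC50 level; % is set by controls: 0 for no effect and ±100 for the full control effect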
Records with an inconclusive call do not appear. Activity calls are given as the source filed them. Calls come from the whole dose curve; as a rule, active = well fitted curve in either direction with a large enough effect (not every such curve was filed as active); inconclusive = small, poorly fitted or top-dose-only effect, or another doubt; inactive = flat fitted curve, though single readings scatter.
// reported activity change, negative = inhibition per item

Q: May I ask what activity change, negative = inhibition has been recorded for COCc1cc(=O)[nH]c(Nc2nc3ccccc3o2)n1 ?
A: 20.9% (inactive)

Q: Follow-up item: CC/C(C)=C1\SC(N2CCN(C(C)=O)CC2)=NC1=O
A: 2% (inactive)

Q: Follow-up item: CCCCC(C(=O)O)C(C)CC(=O)Nc1cccc(C(=O)O)c1 (configuration not stated)
A: 5.92% (inactive)

Q: Follow-up item: COc1cc(/C=N/n2c(C)nnc2C)cc(OC)c1OC
A: -12.3% (inactive)

Q: Follow-up item: CCCC(CCC(=O)Nc1ccc(C(=O)OCC)cc1)C(=O)O (configuration not stated)
A: 4.36% (inactive)
